Recorded values, source patent US7056275B2.

settings: 4 hours after injection, i.v., Balb/C mice, +/- SD

- Molecule: "O=P([O-])(O)CN1CCN(CP(=O)([O-])O)CCN(CP(=O)([O-])O)CCN(CP(=O)([O-])O)CC1.[227Th+4]"
  Tissue distribution, S.I. [% I.D./g]: 0.14
- Molecule: "CC(=O)[O-].CC(=O)[O-].CC(=O)[O-].CC(=O)[O-].[227Th+4] [^227Th-acetate, reference compound]"
  Tissue distribution, S.I. [% I.D./g]: 2.3
- Molecule: "O=P([O-])(O)CN1CCN(CP(=O)([O-])O)CCN(CP(=O)(O)O)CCN(CP(=O)([O-])O)CC1.[228Ac+3]"
  Tissue distribution, S.I. [% I.D./g]: 0.14
- Molecule: "O=P([O-])(O)CN(CCN(CP(=O)([O-])O)CP(=O)([O-])O)CCN(CP(=O)([O-])O)CP(=O)(O)O.[227Th+4]"
  Tissue distribution, S.I. [% I.D./g]: 0.56

###

conditions: 4 hours after injection, i.v., Balb/C mice, +/- SD
Measured Quantity: Tissue distribution, Kidney (% I.D./g)

- Compound: "CC(=O)[O-].CC(=O)[O-].CC(=O)[O-].CC(=O)[O-].[227Th+4] [^227Th-acetate, reference compound]"
  Unit Label: "% I.D./g"
  Assay Value: 7.7
- Compound: "O=P([O-])(O)CN1CCN(CP(=O)([O-])O)CCN(CP(=O)([O-])O)CCN(CP(=O)([O-])O)CC1.[227Th+4] [Th-227 DOTMP]"
  Unit Label: "% I.D./g"
  Assay Value: 3.43
- Compound: "O=P([O-])(O)CN(CCN(CP(=O)([O-])O)CP(=O)([O-])O)CCN(CP(=O)([O-])O)CP(=O)(O)O.[227Th+4] [Th-227 DTMP]"
  Unit Label: "% I.D./g"
  Assay Value: 1.38
- Compound: "O=P([O-])(O)CN1CCN(CP(=O)([O-])O)CCN(CP(=O)(O)O)CCN(CP(=O)([O-])O)CC1.[228Ac+3] [Ac-228 DOTMP]"
  Unit Label: "% I.D./g"
  Assay Value: 2.7

###

settings: 4 hours after injection, i.v., Balb/C mice, +/- SD

- Compound: "O=P([O-])(O)CN1CCN(CP(=O)([O-])O)CCN(CP(=O)([O-])O)CCN(CP(=O)([O-])O)CC1.[227Th+4]"
  Tissue distribution, Heart: "<0.1 % I.D./g"
- Compound: "O=P([O-])(O)CN1CCN(CP(=O)([O-])O)CCN(CP(=O)(O)O)CCN(CP(=O)([O-])O)CC1.[228Ac+3]"
  Tissue distribution, Heart: "<0.1 % I.D./g"
- Compound: "CC(=O)[O-].CC(=O)[O-].CC(=O)[O-].CC(=O)[O-].[227Th+4] [^227Th-acetate, reference compound]"
  Tissue distribution, Heart: "2.6 ± 0.2 % I.D./g"
- Compound: "O=P([O-])(O)CN(CCN(CP(=O)([O-])O)CP(=O)([O-])O)CCN(CP(=O)([O-])O)CP(=O)(O)O.[227Th+4]"
  Tissue distribution, Heart: "<0.1 % I.D./g"

###

conditions: 4 hours after injection, i.v., Balb/C mice, +/- SD
Consider the following molecules and their measured Tissue distribution, Blood readings.

- Molecule: "O=P([O-])(O)CN1CCN(CP(=O)([O-])O)CCN(CP(=O)([O-])O)CCN(CP(=O)([O-])O)CC1.[227Th+4]"
  Tissue distribution, Blood: "<0.1 % I.D./g"
- Molecule: "O=P([O-])(O)CN1CCN(CP(=O)([O-])O)CCN(CP(=O)(O)O)CCN(CP(=O)([O-])O)CC1.[228Ac+3]"
  Tissue distribution, Blood: "<0.1 % I.D./g"
- Molecule: "O=P([O-])(O)CN(CCN(CP(=O)([O-])O)CP(=O)([O-])O)CCN(CP(=O)([O-])O)CP(=O)(O)O.[227Th+4]"
  Tissue distribution, Blood: "<0.1 % I.D./g"
- Molecule: "CC(=O)[O-].CC(=O)[O-].CC(=O)[O-].CC(=O)[O-].[227Th+4] [^227Th-acetate, reference compound]"
  Tissue distribution, Blood: "1.2 ± 0.4 % I.D./g"

###

conditions: 4 hours after injection, i.v., Balb/C mice, +/- SD

- Compound: "O=P([O-])(O)CN1CCN(CP(=O)([O-])O)CCN(CP(=O)([O-])O)CCN(CP(=O)([O-])O)CC1.[227Th+4] [Th-227 DOTMP]"
  Tissue distribution, Rib (% I.D./g): 11.06
- Compound: "CC(=O)[O-].CC(=O)[O-].CC(=O)[O-].CC(=O)[O-].[227Th+4] [^227Th-acetate, reference compound]"
  Tissue distribution, Rib (% I.D./g): 14.6
- Compound: "O=P([O-])(O)CN1CCN(CP(=O)([O-])O)CCN(CP(=O)(O)O)CCN(CP(=O)([O-])O)CC1.[228Ac+3] [Ac-228 DOTMP]"
  Tissue distribution, Rib (% I.D./g): 10.5
- Compound: "O=P([O-])(O)CN(CCN(CP(=O)([O-])O)CP(=O)([O-])O)CCN(CP(=O)([O-])O)CP(=O)(O)O.[227Th+4] [Th-227 DTMP]"
  Tissue distribution, Rib (% I.D./g): 8.83

###

settings: 4 hours after injection, i.v., Balb/C mice, +/- SD

- Molecule: "CC(=O)[O-].CC(=O)[O-].CC(=O)[O-].CC(=O)[O-].[227Th+4] [^227Th-acetate, reference compound]"
  Tissue distribution, Muscle, % I.D./g: 1.1
- Molecule: "O=P([O-])(O)CN1CCN(CP(=O)([O-])O)CCN(CP(=O)([O-])O)CCN(CP(=O)([O-])O)CC1.[227Th+4]"
  Tissue distribution, Muscle, % I.D./g: 0.29
- Molecule: "O=P([O-])(O)CN(CCN(CP(=O)([O-])O)CP(=O)([O-])O)CCN(CP(=O)([O-])O)CP(=O)(O)O.[227Th+4]"
  Tissue distribution, Muscle, % I.D./g: 0.63
- Molecule: "O=P([O-])(O)CN1CCN(CP(=O)([O-])O)CCN(CP(=O)(O)O)CCN(CP(=O)([O-])O)CC1.[228Ac+3]"
  Tissue distribution, Muscle, % I.D./g: 0.30

###

The following molecules are shown together with reported Tissue distribution, Liver values.
conditions: 4 hours after injection, i.v., Balb/C mice, +/- SD

- Molecule: "O=P([O-])(O)CN(CCN(CP(=O)([O-])O)CP(=O)([O-])O)CCN(CP(=O)([O-])O)CP(=O)(O)O.[227Th+4]"
  Tissue distribution, Liver: "0.40 ± 0.43 % I.D./g"
- Molecule: "CC(=O)[O-].CC(=O)[O-].CC(=O)[O-].CC(=O)[O-].[227Th+4] [^227Th-acetate, reference compound]"
  Tissue distribution, Liver: "56.5 ± 9.4 % I.D./g"
- Molecule: "O=P([O-])(O)CN1CCN(CP(=O)([O-])O)CCN(CP(=O)(O)O)CCN(CP(=O)([O-])O)CC1.[228Ac+3]"
  Tissue distribution, Liver: "1.26 ± 0.9 % I.D./g"
- Molecule: "O=P([O-])(O)CN1CCN(CP(=O)([O-])O)CCN(CP(=O)([O-])O)CCN(CP(=O)([O-])O)CC1.[227Th+4]"
  Tissue distribution, Liver: "0.39 ± 0.19 % I.D./g"

###

details: 4 hours after injection, i.v., Balb/C mice, +/- SD

- Molecule: "O=P([O-])(O)CN(CCN(CP(=O)([O-])O)CP(=O)([O-])O)CCN(CP(=O)([O-])O)CP(=O)(O)O.[227Th+4]"
  Unit Label: "% I.D./g"
  Tissue distribution, Lung: 0.12
- Molecule: "O=P([O-])(O)CN1CCN(CP(=O)([O-])O)CCN(CP(=O)([O-])O)CCN(CP(=O)([O-])O)CC1.[227Th+4]"
  Unit Label: "% I.D./g"
  Tissue distribution, Lung: 0.18
- Molecule: "O=P([O-])(O)CN1CCN(CP(=O)([O-])O)CCN(CP(=O)(O)O)CCN(CP(=O)([O-])O)CC1.[228Ac+3]"
  Unit Label: "% I.D./g"
  Tissue distribution, Lung: 0.20
- Molecule: "CC(=O)[O-].CC(=O)[O-].CC(=O)[O-].CC(=O)[O-].[227Th+4] [^227Th-acetate, reference compound]"
  Unit Label: "% I.D./g"
  Tissue distribution, Lung: 2.6

###

details: 4 hours after injection, i.v., Balb/C mice, +/- SD
Some compounds, each annotated with its measured Tissue distribution, L.I..

- Compound: "O=P([O-])(O)CN1CCN(CP(=O)([O-])O)CCN(CP(=O)(O)O)CCN(CP(=O)([O-])O)CC1.[228Ac+3]"
  Tissue distribution, L.I. / % I.D./g: 0.20
- Compound: "O=P([O-])(O)CN(CCN(CP(=O)([O-])O)CP(=O)([O-])O)CCN(CP(=O)([O-])O)CP(=O)(O)O.[227Th+4]"
  Tissue distribution, L.I. / % I.D./g: 0.15
- Compound: "CC(=O)[O-].CC(=O)[O-].CC(=O)[O-].CC(=O)[O-].[227Th+4] [^227Th-acetate, reference compound]"
  Tissue distribution, L.I. / % I.D./g: 1.7
- Compound: "O=P([O-])(O)CN1CCN(CP(=O)([O-])O)CCN(CP(=O)([O-])O)CCN(CP(=O)([O-])O)CC1.[227Th+4]"
  Tissue distribution, L.I. / % I.D./g: 0.19
